Each recorded value in this set is attributed to the supplement of paper PMC9233669.

Test system: biotinyl-Ile-oxazolone
Experimental Details: self-aminoacylation, catalytic enhancement (BIO) (fold over background); higher = more active; k-Seq, kA / k0A0; sequences stand for … in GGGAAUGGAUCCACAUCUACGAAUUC…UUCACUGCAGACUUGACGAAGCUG
This sample holds only a part of the variants without activity.
Experimental Readout: self-aminoacylation

1) ACUACCGUGGUCAUCGAGUGA [Fam2.1 aminoacylation ribozyme variant]; 3.41
2) AUUCUCCUAGGUCAUCGGAUG [Fam2.2 aminoacylation ribozyme variant]; 1.03
3) AUUACACUGGUCAUCGAGUGA [Fam2.1 aminoacylation ribozyme variant]; 3.17
4) CGACUUCUAACAAUCGGUCUG [Fam1A.1 aminoacylation ribozyme variant]; 0.905
5) GAGUUUGCUACUAGUCGCAAG [Fam3.1 aminoacylation ribozyme variant]; 1.31
